I'd appreciate it if you could supply half-life at 10 μM values for the items below.
ASSAY_PROTOCOL: Stability/conversion of esters in human liver S9
Format: in vitro ADME
CONDITION_DESCRIPTION: liver S9, pH 7.4, read-out: T1/2 Human Liver S9

Some compounds with recorded half-life at 10 μM:
# COMPOUND, half-life at 10 μM
rows = [
    ("CCOC(=O)CON1C(=O)N2C[C@H]1C=C(C)[C@H]2C(N)=O", "2.9 min"),
    ("CCOC(=O)CON1C(=O)N2C[C@H]1C(C)=C[C@H]2C(N)=O", "24.8 min"),
    ("CC1=C[C@@H]2CN(C(=O)N2O[C@H](F)C(=O)OC(C)OC(=O)OC(C)C)[C@@H]1C(N)=O (stereo partly shown)", "1.7 min"),
]

For the next question, use this compound.
What does the data say about its half-life at 10 μM? Entry: `CCCOC(=O)[C@@H](F)ON1C(=O)N2C[C@H]1C=C(C)[C@H]2C(N)=O` 6.1 min
